Cited source: patent US20240174634A1

Readings of IC50 for the listed compounds
- target desc: ALDH1A3 (Homo sapiens)
- Sequence (P47895 whole entry): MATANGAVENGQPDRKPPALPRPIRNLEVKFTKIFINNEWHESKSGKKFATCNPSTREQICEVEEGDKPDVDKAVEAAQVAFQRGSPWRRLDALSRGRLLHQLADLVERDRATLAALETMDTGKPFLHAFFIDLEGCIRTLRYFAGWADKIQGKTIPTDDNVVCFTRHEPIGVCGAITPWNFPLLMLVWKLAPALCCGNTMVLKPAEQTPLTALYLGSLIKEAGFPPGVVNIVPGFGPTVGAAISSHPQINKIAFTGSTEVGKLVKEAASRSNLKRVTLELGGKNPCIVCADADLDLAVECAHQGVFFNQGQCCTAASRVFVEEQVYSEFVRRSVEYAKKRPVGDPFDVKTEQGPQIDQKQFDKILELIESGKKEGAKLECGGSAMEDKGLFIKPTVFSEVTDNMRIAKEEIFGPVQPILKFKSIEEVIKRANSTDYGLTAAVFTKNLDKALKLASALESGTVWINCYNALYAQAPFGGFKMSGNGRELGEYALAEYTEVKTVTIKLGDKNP
- assay summary: Primary biochemical assay, NAD(P)H-Glo Detection System
- Parameters: His-tag; made in house; host or cells: E. coli Rosetta (DE3)
- measurement context: 30 min pre-incubation, propionaldehyde and NAD at Km

{"compound": "O=C1CCc2cc(OCCN3CCCC3c3cccc(F)c3)ccc2N1 (centres unmarked) [ALDHI-2001]", "IC50": "< 100 nM"}

Look up IC50 of CN(CCOc1ccc2c(c1)CCC(=O)N2)Cc1ccncc1 [ALDHI-3014] and report it.
1000 to 10000 nM

Look up IC50 of Cc1noc(-c2ccccc2C(=O)Nc2ccc3c(c2)CCC(=O)N3)n1 [ALDHI-1008] and report it.
100 to 1000 nM

Look up IC50 of O=C1CCc2cc(NC(=O)c3sc(N4CCOCC4)nc3-c3cccc(F)c3)ccc2N1 [ALDHI-1001] and report it.
< 100 nM

Look up IC50 of O=C1CCc2cc(OCCN3CCCC3c3ccccc3F)ccc2N1 (centres unmarked) [ALDHI-2002] and report it.
< 100 nM
